Here, each record is paired with measured melting point data.

# example entries with known answers
{"structureAsSmiles": "COc1nc(-c2ccco2)cc(-c2cn(-c3ccccc3)nc2-c2cc3ccccc3o2)c1C#N", "measuredEndpoint": "melting point", "result": "246 to 248 °C"}
{"structureAsSmiles": "CCOc1nc(-c2ccccc2)cc(-c2cn(-c3ccccc3)nc2-c2cc3ccccc3o2)c1C#N", "measuredEndpoint": "melting point", "result": "186 to 188 °C"}
{"structureAsSmiles": "CCOc1nc(-c2ccccn2)cc(-c2cn(-c3ccccc3)nc2-c2cc3ccccc3o2)c1C#N", "measuredEndpoint": "melting point", "result": "204 to 206 °C"}
{"structureAsSmiles": "CCOc1nc(-c2ccc(F)cc2)cc(-c2cn(-c3ccccc3)nc2-c2cc3ccccc3o2)c1C#N", "measuredEndpoint": "melting point", "result": "204 to 206 °C"}
{"structureAsSmiles": "COc1nc(-c2ccc[nH]2)cc(-c2cn(-c3ccccc3)nc2-c2cc3ccccc3o2)c1C#N", "measuredEndpoint": "melting point", "result": "187 to 189 °C"}

Q) Reported melting point, compound CCOc1nc(-c2ccc(Cl)cc2)cc(-c2cn(-c3ccccc3)nc2-c2cc3ccccc3o2)c1C#N : ____
A) 199 to 201 °C

Q) Reported melting point, compound CCOc1nc(-c2ccc[nH]2)cc(-c2cn(-c3ccccc3)nc2-c2cc3ccccc3o2)c1C#N : ____
A) 208 to 210 °C

Data origin: paper PMC6150240
